SYSTEM TESTED: cereblon (CRBN) (Homo sapiens, UniProt Q96SW2)
TEST DETAILS: In vitro CRBN binding assay (AlphaScreen, competitive inhibition of the PROTAC assay)
SETUP CONDITIONS: read-out: Alpha IC50; Table 1; AlphaScreen, PROTAC Optimization Kit for BET Bromodomain-Cereblon Binding
MEASUREMENT TYPE: pIC50
Answers are plain numbers, as −log10 of the molar value.

In: Name the reported pIC50 value associated with the compound Cc1cccc(S(=O)(=O)Nc2cccc(C3CCC(=O)NC3=O)c2)c1 (stereo not shown) [AEV40069]
Out: 6.15

---

SYSTEM TESTED: cereblon (CRBN) (Homo sapiens, UniProt Q96SW2)
TEST DETAILS: In vitro CRBN binding assay (AlphaScreen, competitive inhibition of the PROTAC assay)
SETUP CONDITIONS: Table 1; AlphaScreen, PROTAC Optimization Kit for BET Bromodomain-Cereblon Binding; read-out: Alpha IC50
MEASUREMENT TYPE: pIC50
Numbers only, as −log10 of the molar value.

CN1CCN(c2ccc(NC(=O)CCc3cccc(Nc4cccc(C5CCC(=O)NC5=O)c4)c3)cc2)CC1 (stereo not drawn)    5.91
COc1cc(Cl)ccc1CNc1cccc(C2CCC(=O)NC2=O)c1 (stereo not drawn)    6.00
O=C1CCC(c2cccc(NS(=O)(=O)c3ccc(C(F)(F)F)cc3)c2)C(=O)N1 (stereo not drawn)    5.86
O=C1CCC(c2cccc(NC(=O)c3sccc3Cl)c2)C(=O)N1 (stereo not drawn)    6.06
O=C1CCC(c2cccc(Nc3cccc(CCC(=O)Nc4cc(-c5ccccc5)[nH]n4)c3)c2)C(=O)N1 (stereo not drawn)    6.04

Give pIC50 for each listed item.
1. C[C@H](O)C(=O)Nc1cccc(C2CCC(=O)NC2=O)c1 (stereo partly drawn)
2. CC(C)(C)OC(=O)NCc1cccc(Nc2cccc(C3CCC(=O)NC3=O)c2)c1 (stereo not drawn)
3. O=C1CCC(c2cccc(NC(=O)c3ccccc3-c3ccccc3)c2)C(=O)N1 (stereo not drawn)
4. O=C1CCC(c2cccc(NS(=O)(=O)c3cccc(NC(=O)c4ccc(Cl)cc4Cl)c3)c2)C(=O)N1 (stereo not drawn)
5. CCCc1ccc(C(=O)Nc2cccc(S(=O)(=O)Nc3cccc(C4CCC(=O)NC4=O)c3)c2)cc1 (stereo not drawn)
6. CC(=O)Nc1cccc(C2CCC(=O)NC2=O)c1 (stereo not drawn)
7. CCCCCCc1ccc(C(=O)Nc2cccc(S(=O)(=O)Nc3cccc(C4CCC(=O)NC4=O)c3)c2)cc1 (stereo not drawn)

Out:
1: 5.41; 2: 5.58; 3: 6.36; 4: 5.74; 5: 6.15; 6: 5.28; 7: 6.04
